Origin of the recorded values: the supplement of paper PMC11208160

Measured recombinant barcode read abundance (log10), listed per entry for reference.
Assay: recombinant barcode read abundance after kanamycin selection (control-corrected) (log10(CPM+1)); higher = more efficient recombination; sequences stand for … in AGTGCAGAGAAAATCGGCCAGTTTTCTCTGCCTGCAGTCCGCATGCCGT…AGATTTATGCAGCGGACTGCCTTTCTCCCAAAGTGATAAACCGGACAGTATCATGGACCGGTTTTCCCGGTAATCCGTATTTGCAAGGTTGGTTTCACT; site = the 11-nt target;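 also: IS621 recombinase and bridge RNA in Escherichia coli cells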
Measured property: recombinant barcode read abundance (log10)

{"Sequence entry": "CTCTGGACTTGGGTTCTAACCTGTTGCAC (site CTGTGGACTCT)", "Observed result": 0.058}
{"Sequence entry": "CCACGGACTTGGGTTCTAACCTGTTGCCT (site CCACGGACTAG)", "Observed result": 0.651}
{"Sequence entry": "CGAGCTCCTTGGGTTCTAACCTGTTGCAT (site CGAGCTCCTAT)", "Observed result": 1.86}
{"Sequence entry": "CAAGTTGCTTGGGTTCTAACCTGTTGCCT (site CAAGTCGCTAG)", "Observed result": 0.305}
{"Sequence entry": "GAGGACTCTTGGGTTCTAACCTGTTGCCA (site GAGGACTCTGG)", "Observed result": 0.824}
